The origin of these recorded values is the supplement of paper PMC3334620.

# reported PBM E-score; entries follow
Target: Upc2 (UniProt Q12151)
Sequence: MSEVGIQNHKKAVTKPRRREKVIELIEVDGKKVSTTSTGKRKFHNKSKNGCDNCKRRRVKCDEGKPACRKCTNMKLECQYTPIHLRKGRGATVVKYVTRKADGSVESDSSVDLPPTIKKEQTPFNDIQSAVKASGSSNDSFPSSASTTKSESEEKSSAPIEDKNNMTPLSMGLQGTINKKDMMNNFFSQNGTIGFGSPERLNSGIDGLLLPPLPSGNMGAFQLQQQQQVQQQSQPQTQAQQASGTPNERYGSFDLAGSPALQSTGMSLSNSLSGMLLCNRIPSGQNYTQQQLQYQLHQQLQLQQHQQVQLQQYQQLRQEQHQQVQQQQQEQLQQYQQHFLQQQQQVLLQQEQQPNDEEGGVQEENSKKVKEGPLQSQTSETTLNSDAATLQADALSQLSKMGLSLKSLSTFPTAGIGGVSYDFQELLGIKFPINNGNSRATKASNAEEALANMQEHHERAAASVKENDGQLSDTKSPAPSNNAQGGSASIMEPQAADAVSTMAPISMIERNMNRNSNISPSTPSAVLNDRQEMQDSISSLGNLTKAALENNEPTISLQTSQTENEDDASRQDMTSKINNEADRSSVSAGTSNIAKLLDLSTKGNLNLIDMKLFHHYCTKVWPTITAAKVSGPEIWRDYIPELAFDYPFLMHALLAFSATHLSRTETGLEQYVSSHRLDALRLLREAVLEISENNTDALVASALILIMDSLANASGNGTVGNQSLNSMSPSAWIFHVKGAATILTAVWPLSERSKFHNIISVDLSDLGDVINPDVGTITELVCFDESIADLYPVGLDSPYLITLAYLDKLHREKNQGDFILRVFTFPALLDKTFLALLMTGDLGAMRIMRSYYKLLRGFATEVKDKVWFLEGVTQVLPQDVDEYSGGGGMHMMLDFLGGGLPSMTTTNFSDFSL
Assay: PBM E-score (8-mer binding enrichment) (E-score (-0.5 to 0.5)); higher = stronger / more preferred TF binding
Conditions: protein concentration: 200 nM; construct: GST-full length
Over roughly 33,000 sequences, “E-score (-0.5 to 0.5)” has its median near -0.043; the highest 2% begin near 0.37. This is one part of a sample in which the highest values are shown more often than they occur.
Outcome Measure: PBM E-score

>>> df
    query_sequence   reading
 0        TTGACCAA    -0.179
 1        GGGCTGTA   -0.0846
 2        GAAACGGA     0.199
 3        AGATGGCC    -0.176
 4        CAAACGTA     0.259
 5        CACGAAAG   -0.0189
 6        TAAACGCA     0.399
 7        AACGAAAT     0.398
 8        AGACTGCG     -0.17
 9        AGCTGTAT   -0.0312
10        GAAACGCA    -0.059
11        GACGAAAC     0.251
12        TTTCCAAA   -0.0113
13        AAAACGTA     0.123
14        CACGAAAC    0.0525
15        GATCACGA  -0.00109
16        AACGAAAA     0.368
17        ACCGAAAT     0.141
18        CAACTGCG   -0.0371
19        CAAACGCA     0.258
20        AAAGCATG    -0.169
21        GATCAATC    -0.104
